src = PubChem BioAssay AID463173

tested on: DeltatarO mutant; test: S. aureus survival, RN4220 and DeltatarO strains – OD600, teichoic acid synthesis inhibitors, primary screen (AID 463173); details: S. aureus RN4220 wild type/DeltatarO growth, OD600, 18 h, screened at 18.75 µg/mL (by protocol)
Out of some 52,000 compounds screened, about 4,300 (8.3%) were called active. Cut-off read from the data, not from the text of the source: active = survival mostly below about 52% (no sharp cut-off); inactive = mostly above about 56%. This excerpt belongs to a sample that is enriched for actives.
Assign a class; possible classes are active, inactive

Query: What is the recorded call for this molecule in the test? O=C(CSc1cn(CC(=O)N2CCCCC2)c2ccccc12)NCc1ccc(F)cc1
Response: inactive

Query: What is the recorded call for this molecule in the test? CCCn1c(SCC(O)c2cccc(OC)c2)nc2ccccc21 (stereo unspecified)
Response: inactive

Query: What is the recorded call for this molecule in the test? Cc1ccccc1Cn1cc(S(=O)(=O)c2ccc(F)cc2)c(=O)c2cc3c(cc21)OCO3
Response: inactive

Query: What is the recorded call for this molecule in the test? C=CCN=C1SC(C)C(=O)N1S(=O)(=O)c1ccccc1 (stereo unspecified)
Response: inactive

Query: What is the recorded call for this molecule in the test? C=CCN=C1SCC(=O)N1S(=O)(=O)c1ccc(C)cc1
Response: active

Query: What is the recorded call for this molecule in the test? CC(C)Cn1c(C2CC(=O)N(c3ccccc3Cl)C2)nc2ccccc21 (stereo unspecified)
Response: inactive

Query: What is the recorded call for this molecule in the test? Cc1nc2ccccc2c(=O)n1CC(C)C
Response: inactive

Query: What is the recorded call for this molecule in the test? Cc1ccc(S(=O)(=O)N=C2SCCCS2)cc1
Response: inactive

Query: What is the recorded call for this molecule in the test? COc1ccc(CCNC(=O)CSC2=Nc3ccccc3C3=NC(CCC(=O)NCc4ccccc4)C(=O)N23)cc1OC (stereo unspecified)
Response: inactive

Query: What is the recorded call for this molecule in the test? CCCCNc1nc2c(-c3cccc(Br)c3)nnn2c2ccccc12
Response: inactive

Query: What is the recorded call for this molecule in the test? CC(C)Cn1c(-c2cccc(Br)c2)nc2ccccc21
Response: active

###

tested on: DeltatarO mutant; experiment: S. aureus survival, RN4220 and DeltatarO strains – OD600, teichoic acid synthesis inhibitors, primary screen (AID 463173); details: S. aureus RN4220 wild type/DeltatarO growth, OD600, 18 h, stronger effect = lower value, screened at 18.75 µg/mL (by protocol)
Out of some 52,000 compounds screened, about 4,300 (8.3%) were called active. This excerpt belongs to a sample that is enriched for actives.
readout kind: survival (%)
Supply the numeric figure in %, leaving out any unit text.

Query: Query (molecule): Cc1c(Cl)cccc1-c1ccc(CNc2ccc3[nH]c(=O)[nH]c3c2)o1 ; field requested: survival
Response: 51

Query: Query (molecule): COc1ccc(NC(=O)c2cc(-c3ccccc3O)no2)cc1 ; field requested: survival
Response: 69

Query: Query (molecule): Cc1cc(C)c2c(=O)cc(C(=O)Nc3nc4ccc(F)cc4s3)oc2c1 ; field requested: survival
Response: 61

Query: Query (molecule): COc1ccc(N2C(=O)CSC23C(=O)N(CC(=O)NC2CCCCC2)c2ccccc23)cc1 (stereo not given) ; field requested: survival
Response: 83

Query: Query (molecule): CCOc1ccc(NC(=O)c2cc3cc4ccc(C)cc4nc3o2)cc1 ; field requested: survival
Response: 83

Query: Query (molecule): CCc1cccc(NC(=O)c2cnc(SC)nc2-c2ccccc2)c1 ; field requested: survival
Response: 84

Query: Query (molecule): CCOC(=O)c1ccc(NC(=O)c2cc(=O)c3cc(CC)ccc3o2)cc1 ; field requested: survival
Response: 62

Query: Query (molecule): COc1cc(OC)cc(C(=O)Nc2cc3c(cc2N2CCCCC2)n(C)c(=O)n3C)c1 ; field requested: survival
Response: 83

Query: Query (molecule): COc1ccc(NC(=O)c2ccc(-c3cccc(Cl)c3C)o2)cc1 ; field requested: survival
Response: 16

Query: Query (molecule): CN1CCN(Cc2c(O)ccc3cc(-c4ccccc4)c(=O)oc23)CC1 ; field requested: survival
Response: 105
